- Tested on: Nucleic Acid
- experiment: Induced change in DNA-melting (deltaTm) with [poly(dA-dT)]2 at […]
- Assay type: functional
endpoint_label: Tm shift (°C)
Kindly provide the numeric value in °C only, without the unit symbol.

Solved entries (count: 4):
Cc1nc(-c2c3ccccc3nc3ccccc23)sc1CCOC(=O)c1ccc(N/N=N/c2ccc(C(=O)OCCN3CCCC3)cc2)cc1 : 1.5
Cc1nc(-c2c3ccccc3nc3ccccc23)sc1CCOC(=O)c1ccc(N/N=N/c2ccc(C(=N)N)cc2)cc1 : 2.4
Nc1ccc2cc3ccc(N)cc3nc2c1 : 24.4
c1ccc2nc3ccccc3cc2c1 : 0.7

Next:
Request: Provide only the value of recorded Tm shift for `Cc1nc(-c2c3ccccc3nc3ccccc23)sc1CCOC(=O)c1ccc(N)cc1`
Result: 0.8

---

- Test system: Calf thymus DNA
- experiment: Inhibitory concentration against ethidium in DNA-binding assay
- Format: nucleic-acid assay
- condition_parameters: Bos taurus
Entries and their Q values follow.
Kindly provide the numeric value in µM only, without the unit symbol.

N=C(N)c1ccc(/N=N/Nc2ccc(C(=N)N)cc2)cc1 : 9
Nc1ccc2c(-c3ccccc3)c3ccc(N)cc3nc2c1 : 19
O=C(OCCN1CCCCC1)c1ccc(/N=N/Nc2ccc(C(=O)OCCN3CCCCC3)cc2)cc1 : 13
c1ccc2nc3ccccc3cc2c1 : 24
COc1cc(NS(C)(=O)=O)ccc1Nc1c2ccccc2nc2ccccc12 : 3.8
Cc1nc(-c2c3ccccc3nc3ccccc23)sc1CCOC(=O)c1ccc(N/N=N/c2ccc(C(=N)N)cc2)cc1 : 18
Cc1nc(-c2c3ccccc3nc3ccccc23)sc1CCOC(=O)c1ccc(/N=N/Nc2ccc(C(=O)OCCN(C)C)cc2)cc1 : 35
Cc1nc(-c2c3ccccc3nc3ccccc23)sc1CCOC(=O)c1ccc(N/N=N/c2ccc(C(=O)OCCN3CCCCC3)cc2)cc1 : 27

Next:
Request: Provide only the value of recorded Q for `Cc1nc(-c2c3ccccc3nc3ccccc23)sc1CCOC(=O)c1ccc(N/N=N/c2ccc(C(=O)OCCN3CCOCC3)cc2)cc1`
Result: 28

---

- System: Nucleic Acid
- experiment: Inhibitory concentration against ethidium in DNA-binding assay with [poly(dG-dC)]2 (synthetic oligonucleotide)
- Format: nucleic-acid assay
Label T when Q is strictly below 20 µM; at or above that, label F.

c1ccc(-c2c3ccccc3nc3ccccc23)cc1 : T
Cc1nc(-c2c3ccccc3nc3ccccc23)sc1CCOC(=O)c1ccc(N/N=N/c2ccc(C(=O)OCCN3CCCCC3)cc2)cc1 : F
Cc1nc(-c2c3ccccc3nc3ccccc23)sc1CCOC(=O)c1ccc(N/N=N/c2ccc(C(=N)N)cc2)cc1 : F
Nc1ccc2cc3ccc(N)cc3nc2c1 : T
Cc1nc(-c2c3ccccc3nc3ccccc23)sc1CCOC(=O)c1ccc(N/N=N/c2ccc(C(N)=O)cc2)cc1 : F
Cc1nc(-c2c3ccccc3nc3ccccc23)sc1CCOC(=O)c1ccc(/N=N/Nc2ccc(C(=O)OCCN(C)C)cc2)cc1 : F
O=C(OCCN1CCCCC1)c1ccc(/N=N/Nc2ccc(C(=O)OCCN3CCCCC3)cc2)cc1 : T
Cc1nc(-c2c3ccccc3nc3ccccc23)sc1CCOC(=O)c1ccc(N)cc1 : T

--- query ---
Request: Determine whether this compound shows Q lower than 20 µM (ties excluded): `CC(=O)c1ccc(N/N=N/c2ccc(C(=O)OCCc3sc(-c4c5ccccc5nc5ccccc45)nc3C)cc2)cc1`
Result: F
